The reported numbers originate from paper PMC6543826.

Biological target: p38MAPKα (Homo sapiens, UniProt Q16539)
Sequence (Q16539 whole entry): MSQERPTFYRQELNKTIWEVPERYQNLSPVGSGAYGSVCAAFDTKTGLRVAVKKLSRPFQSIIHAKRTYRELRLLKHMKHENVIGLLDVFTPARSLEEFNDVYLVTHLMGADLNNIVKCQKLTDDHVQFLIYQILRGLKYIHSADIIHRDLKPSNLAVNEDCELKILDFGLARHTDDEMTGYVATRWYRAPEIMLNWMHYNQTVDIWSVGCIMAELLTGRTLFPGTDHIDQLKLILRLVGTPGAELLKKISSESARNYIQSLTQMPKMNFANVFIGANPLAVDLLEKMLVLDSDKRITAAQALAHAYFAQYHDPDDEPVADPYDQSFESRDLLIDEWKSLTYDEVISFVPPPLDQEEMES
Test: in vitro kinase assay, GST-ATF2
Type: biochemical
Conditions: p38MAPKα IC50, 10 μM GST-ATF2
Measured endpoint: IC50 (µM)
Value expressed in µM; do not type the unit.

Challenge: Which measured IC50 value corresponds to O=C1C(Cl)=C(c2c(O)c3c(=O)n(-c4ccccc4)c4ccccc4c3oc2=O)C(=O)c2ccccc21 ?
Response given: 3.1

* * *

As shown below, each of these compounds has a reported Growth percent (G%) value.
System: HCT-116
Assay: cells
Assay type: cell-based
Conditions: HCT-116, 10^−5 M, 48 h
Value expressed in %; do not type the unit.

O=C1c2ccccc2C(=O)c2c1oc1c2c(=O)[nH]c2ccc(Cl)cc21 [3b]    −12.24
O=C1C(Cl)=C(c2c(O)c3c(=O)n(-c4ccccc4)c4ccccc4c3oc2=O)C(=O)c2ccccc21 [compound 6]    41.72
Cn1c(=O)c2c3c(oc2c2ccccc21)C(=O)c1ccccc1C3=O [3e]    71.69
Cn1c(=O)c2c(=O)c3c4c(oc3oc2c2ccccc21)C(=O)c1ccccc1C4=O [5a]    99.77
O=C1c2ccccc2C(=O)c2c1oc1c2c(=O)[nH]c2ccccc21 [3a]    55.46

Challenge: Which measured Growth percent (G%) value corresponds to CCn1c(=O)c2c(=O)c3c4c(oc3oc2c2ccccc21)C(=O)c1ccccc1C4=O [5b] ?
Response given: 34.6

* * *

Test system: ACHN
Assay: cells
Type: cell-based
Conditions: 10^−5 M, 48 h
Would you please tag the item fulfilled when its Growth percent (G%) is 70% or above, and not fulfilled when it is below?

Challenge: In plain terms: is recorded Growth percent (G%) at least 70% for CCn1c(=O)c2c(=O)c3c4c(oc3oc2c2ccccc21)C(=O)c1ccccc1C4=O ?
Response given: fulfilled

Challenge: In plain terms: is recorded Growth percent (G%) at least 70% for O=C1c2ccccc2C(=O)c2c1oc1c2c(=O)[nH]c2ccccc21 ?
Response given: not fulfilled

Challenge: In plain terms: is recorded Growth percent (G%) at least 70% for Cn1c(=O)c2c(=O)c3c4c(oc3oc2c2ccccc21)C(=O)c1ccccc1C4=O ?
Response given: fulfilled

Challenge: In plain terms: is recorded Growth percent (G%) at least 70% for Cn1c(=O)c2c3c(oc2c2ccccc21)C(=O)c1ccccc1C3=O ?
Response given: fulfilled

Challenge: In plain terms: is recorded Growth percent (G%) at least 70% for O=C1c2ccccc2C(=O)c2c1oc1c2c(=O)[nH]c2ccc(Cl)cc21 ?
Response given: not fulfilled

Challenge: In plain terms: is recorded Growth percent (G%) at least 70% for O=C1C(Cl)=C(c2c(O)c3c(=O)n(-c4ccccc4)c4ccccc4c3oc2=O)C(=O)c2ccccc21 ?
Response given: not fulfilled

* * *

Target: ERK1 (Homo sapiens)
Sequence (P27361 whole entry, species assumed): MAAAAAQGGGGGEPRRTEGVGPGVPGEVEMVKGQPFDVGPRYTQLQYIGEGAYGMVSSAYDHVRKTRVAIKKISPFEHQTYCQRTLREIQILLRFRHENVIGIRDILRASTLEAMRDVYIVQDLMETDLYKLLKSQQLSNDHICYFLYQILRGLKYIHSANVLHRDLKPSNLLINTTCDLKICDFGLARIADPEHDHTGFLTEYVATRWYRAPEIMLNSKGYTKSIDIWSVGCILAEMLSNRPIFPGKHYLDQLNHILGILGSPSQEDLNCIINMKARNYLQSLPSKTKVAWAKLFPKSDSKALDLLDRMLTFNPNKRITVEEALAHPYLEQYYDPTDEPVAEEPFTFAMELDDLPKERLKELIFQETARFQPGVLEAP
Assay: in vitro radioactive kinase assay, Ets-1 phosphorylation by ERK1
Type: biochemical
Conditions: read-out: IC50 towards inhibiting ERK; ERK isoform not given
pIC50: −log10 of the molar value.
Measured endpoint: pIC50

Challenge: Which measured pIC50 value corresponds to Cn1c(=O)c2c(=O)c3c4c(oc3oc2c2ccccc21)C(=O)c1ccccc1C4=O [5a] ?
Response given: ≤ 4.00

* * *

System: PC-3
Experiment: cells
Format: cell-based
Conditions: PC-3, 10^−5 M, 48 h
Measured endpoint: Growth percent (G%)
Note: a bare number is incomplete; add the unit.

Check out these entries, answers already filled in.
Cn1c(=O)c2c(=O)c3c4c(oc3oc2c2ccccc21)C(=O)c1ccccc1C4=O    79.23%
CCn1c(=O)c2c(=O)c3c4c(oc3oc2c2ccccc21)C(=O)c1ccccc1C4=O    81.82%
O=C1C(Cl)=C(c2c(O)c3c(=O)n(-c4ccccc4)c4ccccc4c3oc2=O)C(=O)c2ccccc21    49.16%
Cn1c(=O)c2c3c(oc2c2ccccc21)C(=O)c1ccccc1C3=O    64.38%
O=C1c2ccccc2C(=O)c2c1oc1c2c(=O)[nH]c2ccc(Cl)cc21    −33.26%

Continue with the compound presented below.
Challenge: Which measured Growth percent (G%) value corresponds to O=C1c2ccccc2C(=O)c2c1oc1c2c(=O)[nH]c2ccccc21 ?
Response given: 65.49%
